- Test system: CP185
- assay-overview: qHTS profiling for inhibitors of Plasmodium falciparum proliferation (AID 504749); also: nearly all actives have a fitted effect of over 60% in size
- settings: P. falciparum in erythrocytes, SYBR Green DNA, 72 h; series mostly up to 28.7 µM
Results filed as inconclusive are left out. Calls of active or inactive are those of the source. Calls follow the shape of the dose curve; as a rule, active = well fitted inhibition curve with a large enough effect; inconclusive = small, poorly fitted or top-dose-only effect; inactive = flat fitted curve, though single readings scatter.
Outcomes: 1.0 for active, 0.0 for inactive

>>> assigned_class("CN1C(=S)CN=C(c2ccccc2)c2cc(Cl)ccc21")
0.0
>>> assigned_class("Fc1ccc(C(OCCN2CCN(CCCc3ccccc3)CC2)c2ccc(F)cc2)cc1")
1.0
>>> assigned_class("c1ccc(C2CC2)c(OCC2=NCCN2)c1")
0.0
>>> assigned_class("CC[C@@H](CO)NC(=O)[C@@H]1C=C2c3cccc4[nH]cc(c34)C[C@H]2N(C)C1")
0.0
>>> assigned_class("CCCC1CCCCN1 (configuration not stated)")
0.0
>>> assigned_class("CCC(C(N)=O)N1CCCC1=O (configuration not stated)")
0.0
>>> assigned_class("CC(=O)[C@H]1CC[C@H]2[C@@H]3CC[C@H]4C[C@H](O)CC[C@]4(C)[C@H]3C(=O)C[C@]12C")
0.0
>>> assigned_class("Cc1ncc(CNC(=O)N(CCCl)N=O)c(N)n1")
0.0
>>> assigned_class("CC1NCCOC1c1ccccc1 (configuration not stated)")
0.0
>>> assigned_class("O=C1NCN(c2ccccc2)C12CCN(CC1COc3ccccc3O1)CC2 (configuration not stated)")
0.0
>>> assigned_class("Clc1ccc(COC(Cn2ccnc2)c2ccc(Cl)cc2Cl)cc1 (configuration not stated)")
1.0
>>> assigned_class("CN1CCN(C(=O)O[C@H]2c3nccnc3C(=O)N2c2ccc(Cl)cn2)CC1")
0.0
>>> assigned_class("NN=C(N)N")
0.0
>>> assigned_class("CN1C[C@H](CNC(=O)OCc2ccccc2)C[C@@H]2c3cccc4c3c(cn4C)C[C@H]21")
1.0
>>> assigned_class("Cn1c(CCCC(=O)O)nc2cc(N(CCCl)CCCl)ccc21")
0.0
>>> assigned_class("NCC(O)c1ccc(O)cc1 (configuration not stated)")
0.0
>>> assigned_class("CCN(C(C)=O)c1cccc(-c2ccnc3c(C#N)cnn23)c1")
0.0
